# credit: the supplement of paper PMC10567573

B1: SAT2 (parent)
chain: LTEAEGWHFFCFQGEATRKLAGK

Variants of: B1
procedureText: protein stability index of a GFP-peptide fusion (GPS, HEK-293T) (PSI 1-6); higher = more stable;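 also: lentivirally expressed fusions sorted by FACS into six bins by GFP to DsRed ratio, PSI derived from sequencing read proportions per bin multiplied by bin number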
measurementContext: c terminus: native
parameterMeasured: protein stability index
One number for each entry.

LTEAEGWHFFCFQGEATRKFAGK [L20F] | 1.97
LTEAEGWHFFCFQGEATIKLAGK [R18I] | 3.84
LTEAEHWHFFCFQGEATRKLAGK [G6H] | 2.14
LTEAEGWCFFCFQGEATRKLAGK [H8C] | 1.78

Hi team, please reply with protein stability index for each item in this list.
1. LTQAEGWHFFCFQGEATRKLAGK [E3Q]
2. LTEAEGHHFFCFQGEATRKLAGK [W7H]
3. LTEAEGMHFFCFQGEATRKLAGK [W7M]

1: 1.82; 2: 3.96; 3: 3.5

Hi team, please reply with protein stability index for each item in this list.
1. LTEAEGWHFFCPQGEATRKLAGK [F12P]
2. LTEAEGWHFFCFQGENTRKLAGK [A16N]
3. LTEAEGWHFTCFQGEATRKLAGK [F10T]
4. LTEAEGWTFFCFQGEATRKLAGK [H8T]
5. LTEAEGWHFFCFQGEATMKLAGK [R18M]
6. LTEAEGWHFFCFAGEATRKLAGK [Q13A]
7. LTEAEGWHFFHFQGEATRKLAGK [C11H]
8. LTEAEGWHFFCIQGEATRKLAGK [F12I]

1: 3.85; 2: 2.67; 3: 3.99; 4: 3.27; 5: 1.71; 6: 2.14; 7: 2.99; 8: 2.55
